Test system: U2OS
Experiment: Multiplex assay against U2OS
Type: toxicity, cell-based
Conditions: human, 24 h, 1 µM, compound concentration 1 uM
recorded endpoint: Population Hoechst High Intensity Objects (%)

In [3]: df
Out[3]:
                                    molecule  value_observed
 0  Cc1cc(C(C#N)c2ccc(Cl)cc2)c(Cl)cc1NC(=O)c1cc(I)cc(I)c1O (stereo not given)               0
 1  Cc1c(C(=O)NCCCN(C)C)sc2ncnc(Nc3ccc(F)cc3OC(C)CF)c12 (stereo not given)               0
 2              CCn1c(-c2ccncc2)cc2c1CCNC2=O               0
 3  CC[C@@H](C)Nc1nc(C)nc2c(-c3ccc(OC)nc3C)c(C)nn12               2
 4  Cc1cnc(-c2cc(N3CCN(C(=O)CCS(C)(=O)=O)CC3)ncc2Cl)c(C)c1               2
 5  COc1ccc(CC(=O)NC(N/C(=N/C#N)Nc2cccc3ncccc23)C(C)(C)C)cc1OC (stereo not given)               0
 6  COC(=O)C1=C(C)NC(C)=C(C(=O)OC(C)C)C1c1cccc2nonc12 (stereo not given)               0
 7  O=C(Nc1c[nH]nc1-c1nc2cc(CN3CCOCC3)ccc2[nH]1)NC1CC1               0
 8  O=C(O)C(F)(F)F.O=C1NC(=O)/C(=C/c2c[nH]c(=O)c(-c3ccc(N4CCNCC4)nc3)c2)S1               0
 9  COC(c1ccccc1)(c1ccccc1)[C@H](Oc1nc(C)cc(C)n1)C(=O)O               0
10  CCCCCN1C(=O)C2(COc3cc4c(cc32)OCO4)c2ccccc21 (stereo not given)               0
11              CCC(=N\O)/C(C)=C/c1ccc(F)cc1               0
12  Cc1ccc(-c2c(C(=O)CF)n(CCCO)c3ncnc(N)c23)cc1               0
13  CC(C)[C@H](C(=O)Nc1ccc(C(=O)NO)cc1)c1ccccc1               0
14  CCOC(=O)c1c(/C(C#N)=C\N)c2ccc(Cl)c(Cl)c2n1C               0
15  NC1=NC(=O)/C(=C2\CCNC(=O)c3[nH]c4ccccc4c32)N1               0
16  Cc1c(-c2cc(-c3ccccc3Cl)no2)cnn1C1CCNCC1.Cl               0
17  CC(C)(C)c1cc(C(C)(C)C)c(NC(=O)c2c[nH]c3ccccc3c2=O)cc1O               0
18  CC(N)C1CCC(C(=O)Nc2ccncc2)CC1 (stereo not given)               0
19  Cc1cc(NC(=O)NCCN2CCC(O)(Cc3ccccc3)CC2)c2ccccc2n1               1

* * *

System: U2OS
Experiment: Multiplex assay against U2OS
Type: toxicity, cell-based
Conditions: human, 48 h, 1 µM, compound concentration 1 uM
recorded endpoint: Population Mitochondria Different-Phenotype (%)

In [3]: df
Out[3]:
                                   compound  value_observed
0  O=C(NCC(=O)N1CC[C@H](N[C@H]2CC[C@@](O)(c3ccc(-c4ncccn4)cn3)CC2)C1)c1cccc(C(F)(F)F)c1               3
1  Nc1nc(CC(=O)Nc2ccc(CCNC[C@H](O)c3ccccc3)cc2)cs1               3
2        Cc1ccc(/C(=C\CN2CCCC2)c2ccccn2)cc1               3
3  Cc1cccc(NC(=O)CN2CCC(c3ccccn3)CC2)c1.Cl.Cl               3
4  COC(c1ccccc1)(c1ccccc1)[C@H](Oc1nc(C)cc(C)n1)C(=O)O               1
5  Cc1nc2ccc(Oc3ccc(F)cc3)cc2c(=O)n1C[C@H]1CCCN(C(C)C)C1.Cl               5
6  Cl.Cl.OCCOCCN1CCN(C(c2ccccc2)c2ccc(Cl)cc2)CC1 (stereo not drawn) [HYDROXYZINE HYDROCHLORIDE]               3
7  C[C@H](NC(=O)CNC(=O)c1cccc(Cl)c1)c1ccccc1               3
